molecular target: Nuclear factor NF-kappa-B complex (Homo sapiens, UniProt P19838+Q00653+Q04206); assay: Inhibition of NF-kappaB in human THP1 cells incubated for 2 hrs prior to LPS challenge measured after 16 hrs by SEAP assay
Sequence (P19838 1-433 limits assumed): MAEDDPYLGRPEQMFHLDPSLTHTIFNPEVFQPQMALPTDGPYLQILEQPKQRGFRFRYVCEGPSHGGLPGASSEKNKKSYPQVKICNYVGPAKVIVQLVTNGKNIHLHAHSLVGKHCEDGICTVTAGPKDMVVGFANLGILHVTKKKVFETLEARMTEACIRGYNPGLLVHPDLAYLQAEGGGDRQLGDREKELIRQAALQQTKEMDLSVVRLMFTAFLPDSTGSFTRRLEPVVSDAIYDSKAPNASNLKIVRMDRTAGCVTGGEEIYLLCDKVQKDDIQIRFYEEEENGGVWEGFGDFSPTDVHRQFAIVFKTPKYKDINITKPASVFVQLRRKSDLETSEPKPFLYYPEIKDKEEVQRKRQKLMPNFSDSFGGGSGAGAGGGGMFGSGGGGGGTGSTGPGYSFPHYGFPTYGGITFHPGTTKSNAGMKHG
Sequence (Q00653 1-454 limits assumed): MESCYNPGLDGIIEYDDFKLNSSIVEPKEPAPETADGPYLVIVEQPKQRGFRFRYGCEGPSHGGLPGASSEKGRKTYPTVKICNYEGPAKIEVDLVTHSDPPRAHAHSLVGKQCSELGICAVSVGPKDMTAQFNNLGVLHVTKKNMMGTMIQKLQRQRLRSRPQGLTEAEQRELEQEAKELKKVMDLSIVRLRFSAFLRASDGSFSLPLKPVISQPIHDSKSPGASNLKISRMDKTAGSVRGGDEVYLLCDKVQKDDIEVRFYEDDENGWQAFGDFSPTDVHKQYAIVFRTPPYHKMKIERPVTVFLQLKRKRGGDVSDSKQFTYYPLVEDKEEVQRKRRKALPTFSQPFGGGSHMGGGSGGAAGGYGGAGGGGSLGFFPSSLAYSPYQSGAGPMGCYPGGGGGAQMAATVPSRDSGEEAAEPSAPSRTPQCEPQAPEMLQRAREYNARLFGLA
Sequence (Q04206 whole entry): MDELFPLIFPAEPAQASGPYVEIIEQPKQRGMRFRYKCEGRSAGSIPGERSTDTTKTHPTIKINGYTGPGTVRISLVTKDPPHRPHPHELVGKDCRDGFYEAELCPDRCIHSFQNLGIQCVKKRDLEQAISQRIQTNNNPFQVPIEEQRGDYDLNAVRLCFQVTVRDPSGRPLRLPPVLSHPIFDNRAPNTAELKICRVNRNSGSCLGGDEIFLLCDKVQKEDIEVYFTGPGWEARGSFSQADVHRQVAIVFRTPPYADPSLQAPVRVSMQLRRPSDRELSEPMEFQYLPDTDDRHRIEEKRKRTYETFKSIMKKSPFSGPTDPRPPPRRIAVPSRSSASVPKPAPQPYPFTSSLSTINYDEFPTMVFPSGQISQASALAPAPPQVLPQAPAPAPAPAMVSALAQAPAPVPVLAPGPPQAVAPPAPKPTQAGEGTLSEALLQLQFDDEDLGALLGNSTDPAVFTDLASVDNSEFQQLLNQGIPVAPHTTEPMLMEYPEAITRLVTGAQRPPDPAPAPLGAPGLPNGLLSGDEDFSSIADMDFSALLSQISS
Endpoint: IC50 (µM)
The reply should contain only the number, in µM.

Some solved entries appear below for comparison.
>>> measured_number("CC(C)(C)CCOc1cccc(O)c1C(=O)/C=C/c1ccc(S(N)(=O)=O)cc1")
1.2
>>> measured_number("CC(C)(C)CCOc1cccc(O)c1C(=O)/C=C/c1ccc(C(=O)O)cc1")
2.8
>>> measured_number("CC(C)COc1cccc(O)c1C(=O)/C=C/c1ccc(O)cc1")
8
>>> measured_number("CC(C)CCCOc1cccc(O)c1C(=O)/C=C/c1ccc(O)cc1")
11

Note: attention shifts to another entry.
Inquiry: Entry O=C(/C=C/c1ccc(O)cc1)c1c(O)cccc1OCCC1CCCC1 : reported IC50 = ?
Reply text: 18

----------
system: PC-3; test: Antiproliferative activity against human PC3 cells by SRB method; type: functional
Lab note - cut at 4 µM for GI50: 1 if strictly below, -1 if not.

>>> category("O=C(/C=C/c1ccc(O)cc1)c1c(O)cccc1OCC12CC3CC(CC(C3)C1)C2")
-1

Inquiry: Threshold test, GI50 < 4 µM: CC(C)CCCOc1cccc(O)c1C(=O)/C=C/c1ccc(O)cc1
Reply text: 1

Inquiry: Same question, O=C(/C=C/c1ccc(O)cc1)c1c(O)cccc1OCCC1CCCC1 this time
Reply text: 1

Inquiry: Same question, O=C(/C=C/c1ccc(O)cc1)c1c(O)cccc1OCCC1CCCCC1 this time
Reply text: -1

Inquiry: Same question, O=C(/C=C/c1ccc(O)cc1)c1c(O)cccc1OCC1CCCC1 this time
Reply text: 1

Inquiry: Same question, O=C(/C=C/c1ccc(O)cc1)c1c(O)cccc1OCc1ccccc1 this time
Reply text: -1

Inquiry: Same question, CC(C)CCOc1cccc(O)c1C(=O)/C=C/c1ccc(O)cc1 this time
Reply text: -1

----------
assay: Antiproliferative activity against human NUGC3 cells by SRB method; format: functional; conditions: NUGC-3
Endpoint: GI50 (µM)
The reply should contain only the number, in µM.

>>> measured_number("O=C(/C=C/c1ccc(O)cc1)c1c(O)cccc1OCCC1CCCC1")
3.2
>>> measured_number("CC(C)COc1cccc(O)c1C(=O)/C=C/c1ccc(O)cc1")
2.98
>>> measured_number("CC(C)(C)CCOc1cccc(O)c1C(=O)/C=C/c1ccc(S(N)(=O)=O)cc1")
1.17
>>> measured_number("CC(C)CCOc1cccc(O)c1C(=O)/C=C/c1ccc(O)cc1")
12.4
>>> measured_number("CC(C)(C)CCOc1cccc(O)c1C(=O)/C=C/c1ccc(O)cc1")
3.3
>>> measured_number("CC(C)CCCOc1cccc(O)c1C(=O)/C=C/c1ccc(O)cc1")
3.52

Inquiry: Entry CC(C)(C)CCOc1cccc(O)c1C(=O)/C=C/c1ccc(C(=O)O)cc1 : reported GI50 = ?
Reply text: 5.44

Inquiry: Same question, CCC(CC)COc1cccc(O)c1C(=O)/C=C/c1ccc(O)cc1 this time
Reply text: 1.96

Inquiry: Same question, COc1cccc2c1C(=O)c1c(O)c3c(c(O)c1C2=O)C[C@@](O)(C(=O)CO)C[C@@H]3O[C@H]1C[C@H](N)[C@H](O)[C@H](C)O1 this time
Reply text: 1

Inquiry: Same question, O=C(/C=C/c1ccc(O)cc1)c1c(O)cccc1OCC1CCCC1 this time
Reply text: 2.14

Sourced from ChEMBL document CHEMBL3286164
